experiment: human hepatoma cell viability loss – ATP luminescence, cytotoxicity control for P. falciparum antimalarial project, primary screen (AID 2303); settings: HepG2 viability, 24-48 h, at 10 µM
Active and inactive are the calls of the source.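 The calls were made as follows: active = inhibition above 50%; inactive = the rest.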
Possible outcomes: active, inactive

{"columns": ["MOLECULE", "CATEGORY"],
 "data": [
  ["CCCN1CCN(Cc2ccc(C(=O)Nc3ccc(Cl)cc3)cc2)CC1", "inactive"],
  ["c1ccc(CCNc2ncnc3c2[nH]c2ccccc23)cc1", "active"],
  ["O=C(Nc1ccc(CCNCCCc2ccccc2)cc1)Nc1ccc(Cl)c(Cl)c1", "inactive"],
  ["Cc1cnc(C(=O)Nc2cccc(-c3cccc(-c4nc5c(C)cccc5[nH]4)c3)c2)cn1", "inactive"],
  ["COc1ccc(-c2cc(-c3nc4ccc(CN)cc4[nH]3)c(=O)n(C)c2)cc1OC", "inactive"],
  ["O=C(NC1CC1)c1ccc(N2CCC(Cc3ccccc3)CC2)c([N+](=O)[O-])c1", "inactive"],
  ["O=c1cc(NCCCNC2CCc3ccc(Cl)cc32)[nH]c2ccccc12 (stereo not given)", "inactive"],
  ["Cc1cccc(N2C(N)=NC(N)=NC2(C)C)c1C", "inactive"],
  ["CCC(C)(C)NC(=O)C(c1cccc(OC)c1)N(C(=O)CNC(=O)c1cccs1)c1ccc2c(c1)OCCO2 (stereo not given)", "inactive"],
  ["Cc1onc(-c2ccccc2)c1-c1nc(NCCC(c2ccccc2)c2ccccc2)no1", "inactive"],
  ["COc1ccc2cc(C(=O)NC3CCC(CCN4CCc5cc(C#N)ccc5C4)CC3)[nH]c2c1 (stereo not given)", "inactive"],
  ["Cc1cccc2[nH]c(-c3cccc(-c4ccc(CNCCCN5CCCC5=O)cc4)c3)nc12", "inactive"],
  ["COc1ccc2nccc(NN=Cc3ccccc3F)c2c1", "inactive"],
  ["O=C(Nc1ccccc1)N(Cc1cccc(-c2cccc(CNCc3ccc4c(c3)OCO4)c2)c1)C1CCN(Cc2ccccc2)CC1", "active"],
  ["CCN(CC)CCCn1c(N)c(-c2nc3ccccc3[nH]2)c2nc(C#N)c(C#N)nc21", "inactive"],
  ["O=C(/C=C/c1ccccc1Cl)Nc1ccc(Br)c(OCCN2CCC(O)(c3ccccc3)CC2)c1", "inactive"],
  ["c1cc(CNCCN2CCNCC2)cc(-c2cccc(-c3nc4ccccc4[nH]3)c2)c1", "inactive"],
  ["CCOc1ccc(NC(=O)c2ccc(NCCCN3CC(C)CC(C)C3)c([N+](=O)[O-])c2)cc1 (stereo not given)", "inactive"],
  ["CC(C)N(Cc1cnc2nc(N)nc(N)c2n1)c1ccc(Cl)c(Cl)c1", "active"],
  ["COc1cc2nc(N3CCC(CNC(=O)c4cccc5cccnc45)CC3)nc(N)c2cc1OC", "inactive"]
]}

###

molecular target: Protein kinase 7 (PK7), Plasmodium falciparum 3D7 (PF3D7_0213400) (UniProt Q7YTF7); assay: inhibition of Plasmodium PK7 catalytic activity – biochemical, TCAMS antimalarial set, Kinase-Glo luminescence (AID 1159587); details: recombinant PfPK7, Kinase-Glo ATP depletion luminescence
Calls of active or inactive are those of the source. How the calls were made is not given here.

{"columns": ["SMILES", "outcome"],
 "data": [
  ["COc1cc(NC(=O)c2cccs2)c(OC)cc1NC(=O)Nc1cccc(Cl)c1", "inactive"],
  ["COc1c(C2CCN(CCCCNC(=O)c3ccc(-c4ccc(C(=O)C(F)(F)F)cc4)cc3)CC2)ccc2c1CCCC2", "inactive"],
  ["Cc1ccc2nc(C)cc(NN=Cc3cccc(Cl)c3)c2c1", "inactive"],
  ["O=C(/C=C/c1ccc(C(F)(F)F)cc1)NCCCCCN1CCN(C(=O)Nc2ccc(Cl)cc2)CC1", "inactive"],
  ["CCOc1ccc(C2CCN(CCCCNC(=O)c3ccc(NC(=O)c4ccc(Cl)cc4)cc3)CC2)c(CC)c1", "inactive"],
  ["Cc1cccc(-c2ccc(NC(=O)C3CCN(Cc4cccc(O)c4)CC3)cc2)c1", "inactive"],
  ["CN(C)C(=O)O[C@@H]1CN[C@H](C#Cc2cc3ncnc(Nc4ccc5c(cnn5Cc5cccc(F)c5)c4)c3s2)C1", "inactive"],
  ["Nc1nonc1-c1nc2c(-c3cccc(Cl)c3)nccc2n1CCCNC(=O)Cc1ccc(Cl)cc1", "inactive"],
  ["COc1ccc2nccc(NN=Cc3cccc([N+](=O)[O-])c3)c2c1", "inactive"]
]}
